Entry source: PubChem BioAssay

- Test system: glycogen synthase kinase-3 (GSK3A per assay name; protocol says GSK3B)
- test.name: GSK3 binders on small-molecule microarrays, primary screen, biochemical, small-molecule microarray, 635 nm fluorescence, GSK3A (AID 1103); note: the record names both GSK3A and GSK3B
- condition.summary: small-molecule microarray binding, fluorescence 635 nm; higher = more signal
# Lookup of reported composite z-score keyed by entry
readout.type: composite z-score

>  <sample.smiles>
[N-]=[N+]=Nc1ccccc1[C@H]1OC(c2ccc(OCCCO)cc2)=N[C@@]1(Cc1ccccc1)C(N)=O

>  <endpoint.value>
1.28

$$$$
>  <sample.smiles>
COc1ccc([Si](C)(C)[C@@H]2[C@@H](CC(=O)N3CCC[C@H]3CO)O[C@]3(C(=O)N(Cc4ccc(N5CCC5=O)cc4)c4ccccc43)[C@H]2C)cc1

>  <endpoint.value>
0.398

$$$$
>  <sample.smiles>
CC(C)(C)OC(=O)CC[C@]1(C(=O)NCc2ccccc2)COC(c2ccc(OCCCO)cc2)=N1

>  <endpoint.value>
0.319

$$$$
>  <sample.smiles>
CO[C@H]1O[C@H](CO)[C@@H](OC(=O)Nc2ccccc2)[C@H](OC(=O)Nc2ccc3c(c2)OCO3)[C@H]1OC(=O)Nc1ccc2c(c1)OCO2

>  <endpoint.value>
0.741

$$$$

---

- test.name: small-molecule microarray binders of probe aShh, primary screen, biochemical, biotinylated probe, 635/667 nm fluorescence (AID 1114);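 note: probe is biotin-labelled aShh protein from a stem cell growth factor screen; measures binding of labelled protein to compounds printed on the slide; score merges feature fluorescence at 667 nm with signal-to-noise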
- condition.summary: higher = more signal
Assign class by composite z-score: not lower than -0.001 means Criterion met; lower than -0.001 means Criterion not met.

>  <molecule>
CCCNC(=O)[C@@H]1c2ccccc2C(=O)N(Cc2cc(C(F)(F)F)cc(C(F)(F)F)c2)[C@H]1c1ccc(CO)cc1

>  <assigned.class>
Criterion met

$$$$
>  <molecule>
O=C(NO)[C@]1(Cc2ccccc2)N=C(c2ccc(OCCCO)cc2)O[C@@H]1c1ccccc1

>  <assigned.class>
Criterion met

$$$$
>  <molecule>
C[N+](C)(C)CCCC[C@@H]1NC(=O)[C@@H]2C[C@H](C(=O)NCCCCCNC(=O)CS)[C@H](c3ccc(O)cc3)N2C1=O

>  <assigned.class>
Criterion met

$$$$
>  <molecule>
CC(C)C[C@@H]1NC(=O)[C@@]23C(=O)N[C@@H](Cc4ccccc4)C2[C@H](C)[C@@]2(C)O[C@H]2C3/C=C/C/C=C\CNC(=O)[C@H](Cc2ccccc2)NC1=O (some centres not stated)

>  <assigned.class>
Criterion not met

$$$$
>  <molecule>
CC1CC/C=C\[C@H]2OC34C=CCN(C(C)C)C(=O)[C@H]3N(C(CO)C(C)C)C(=O)[C@@H]4C2C(=O)O1 (some centres not stated)

>  <assigned.class>
Criterion not met

$$$$
>  <molecule>
C=CCN1C(=O)[C@@]2(O[C@@H](CCO)[C@H]([Si](C)(C)c3ccc(OC)cc3)[C@H]2C)c2cc(N3C(=O)c4cccc5cccc3c45)ccc21

>  <assigned.class>
Criterion met

$$$$
>  <molecule>
CN1C=C(C(=O)OCCS(C)(=O)=O)C(C(=O)OCCS(C)(=O)=O)=CC(CCCO)=CC1c1cccs1 (configuration not stated)

>  <assigned.class>
Criterion not met

$$$$

---

- experimental.target: Pro-neuregulin-1, membrane-bound isoform (Homo sapiens)
- test.name: NRG1 binders on small-molecule microarrays, primary screen, psychiatric disease protein project, biochemical, small-molecule microarray, fluorescence 635/667 (AID 1075);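 note: score combines 667 nm spot fluorescence with signal to noise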
- condition.summary: NRG1 binding, 635 nm fluorescence, higher = more signal
Assign class by composite z-score: not lower than 0.1 means Y; lower than 0.1 means N.

>  <compound>
NC(=O)NCC#Cc1ccc2c(c1)[C@]1(C(=O)N2)[C@H](c2ccc(OCCO)cc2)N2[C@H](c3ccccc3)[C@H](c3ccccc3)OC(=O)[C@H]2[C@@H]1C(=O)Nc1nc2ccccc2s1

>  <experimental.target>
Pro-neuregulin-1, membrane-bound isoform (Homo sapiens)

>  <assigned.class>
N

$$$$
>  <compound>
COc1c(C)cc(-c2cc3c(c(CCc4ccccc4)n2)[Si](C(C)C)(C(C)C)OC3)cc1C

>  <experimental.target>
Pro-neuregulin-1, membrane-bound isoform (Homo sapiens)

>  <assigned.class>
N

$$$$
>  <compound>
O=C(O)[C@H]1C[C@H]2C(=O)NCC(=O)N2[C@H]1c1cccc(OCCO)c1

>  <experimental.target>
Pro-neuregulin-1, membrane-bound isoform (Homo sapiens)

>  <assigned.class>
Y

$$$$
>  <compound>
C#CCOc1ccc(C[C@H]2C(=O)O[C@H](Cc3ccccc3)[C@H](/C=C/C3CC3)N2CC#C)cc1

>  <experimental.target>
Pro-neuregulin-1, membrane-bound isoform (Homo sapiens)

>  <assigned.class>
N

$$$$
>  <compound>
O=C(N1CCCCC1)[C@@]1(Cc2ccccc2)N=C(c2ccc(OCCCO)cc2)O[C@H]1c1ccccc1

>  <experimental.target>
Pro-neuregulin-1, membrane-bound isoform (Homo sapiens)

>  <assigned.class>
Y

$$$$
>  <compound>
COc1ccc([Si](C)(C)[C@H]2[C@H](CCO)O[C@@]3(C(=O)N(Cc4ccc(N5C(=O)c6cccc7cccc5c67)cc4)c4ccccc43)[C@@H]2C)cc1

>  <experimental.target>
Pro-neuregulin-1, membrane-bound isoform (Homo sapiens)

>  <assigned.class>
Y

$$$$
>  <compound>
C=C(COC)/C(=C/C[C@H](OC(C)=O)c1ccc(CO)o1)c1cnc2ccccc2c1

>  <experimental.target>
Pro-neuregulin-1, membrane-bound isoform (Homo sapiens)

>  <assigned.class>
Y

$$$$
>  <compound>
COc1ccc(CCNC(=O)[C@@]2(Sc3ccc(C)cc3)CC(=O)N(Cc3ccccc3)[C@@H]2c2ccc(CO)cc2I)cc1

>  <experimental.target>
Pro-neuregulin-1, membrane-bound isoform (Homo sapiens)

>  <assigned.class>
N

$$$$
>  <compound>
C=CC[C@@H](OC(=O)Nc1ccc(SC)cc1)c1ccc(OCCO)cc1

>  <experimental.target>
Pro-neuregulin-1, membrane-bound isoform (Homo sapiens)

>  <assigned.class>
Y

$$$$
>  <compound>
CC(C)[C@@H](C(=O)O)n1cc(-c2ccccn2)nn1

>  <experimental.target>
Pro-neuregulin-1, membrane-bound isoform (Homo sapiens)

>  <assigned.class>
Y

$$$$
>  <compound>
COCCCNC(=O)[C@@]1(Cc2ccccc2)N=C(c2ccc(OCCCO)cc2)O[C@H]1c1ccccc1N=[N+]=[N-]

>  <experimental.target>
Pro-neuregulin-1, membrane-bound isoform (Homo sapiens)

>  <assigned.class>
Y

$$$$
>  <compound>
CC(C)C[C@@H]1NC(=O)[C@@]23C(=O)N[C@@H](Cc4ccccc4)C2[C@H](C)[C@@]2(C)O[C@H]2C3/C=C/CC/C=C/CNC(=O)[C@@H](C)NC1=O (stereo not given in full)

>  <experimental.target>
Pro-neuregulin-1, membrane-bound isoform (Homo sapiens)

>  <assigned.class>
N

$$$$
>  <compound>
C=CCC(OC(C)=O)[C@@H]1[C@@H](N(Cc2cccc3ccccc23)C(=O)c2cccc3ccccc23)c2cc(OCCCO)ccc2N1C(=O)Cc1ccc(OC)cc1 (stereo not given in full)

>  <experimental.target>
Pro-neuregulin-1, membrane-bound isoform (Homo sapiens)

>  <assigned.class>
Y

$$$$
>  <compound>
CO[C@H]1O[C@H](CO)[C@@H](OC(=O)Nc2ccccc2)[C@H](OC(=O)Nc2ccccc2-c2ccccc2)[C@@H]1OC(=O)Nc1ccccc1-c1ccccc1

>  <experimental.target>
Pro-neuregulin-1, membrane-bound isoform (Homo sapiens)

>  <assigned.class>
Y

$$$$
>  <compound>
COc1ccc([Si](C)(C)[C@@H]2[C@@H](CCn3cc([C@H](O)c4ccccc4)nn3)O[C@]3(C(=O)N(C)c4c(Br)cc(C)cc43)[C@H]2C)cc1

>  <experimental.target>
Pro-neuregulin-1, membrane-bound isoform (Homo sapiens)

>  <assigned.class>
N

$$$$

---

- test.name: anti-His antibody binders, primary screen, artefact control for SMM control protein annotation, biochemical, small-molecule microarray, 635 nm fluorescence (AID 1128);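 note: score merges feature fluorescence with signal-to-noise for each printed compound spot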
- condition.summary: anti-His Alexa647 antibody binding, higher = more signal
readout.type: composite z-score

>  <compound>
[N-]=[N+]=NCc1ccccc1C[C@@]1(C(=O)O)N=C(c2ccc(OCCCO)cc2)O[C@@H]1c1ccccc1

>  <endpoint.value>
0.822

$$$$
>  <compound>
COc1ccc([Si](C)(C)[C@@H]2[C@@H](CC(=O)N3CCC[C@H]3CO)O[C@]3(C(=O)N(Cc4ccc(N5CCC5=O)cc4)c4ccccc43)[C@H]2C)cc1

>  <endpoint.value>
2.01

$$$$
>  <compound>
COc1ccc(/C=C/C(=O)c2cccc(OCC(=O)OC(C)(C)C)c2)cc1

>  <endpoint.value>
0.0179

$$$$
>  <compound>
COC(=O)C(CC#Cc1ccc2c(c1)[C@]1(C(=O)N2)[C@H](C(N)=O)[C@H]2C(=O)O[C@H](c3ccccc3)[C@H](c3ccccc3)N2[C@@H]1c1ccc(O)cc1)C(=O)OC

>  <endpoint.value>
0.62

$$$$
>  <compound>
C[C@@H](OCc1ccccc1)C1NC(=O)[C@@]23C(=O)N[C@@H](Cc4ccccc4)C2[C@H](C)[C@@]2(C)O[C@H]2C3/C=C/C/C=C\CNC(=O)[C@@H]2CCCN2C1=O (stereo partly specified)

>  <endpoint.value>
-0.0278

$$$$
>  <compound>
C=CCC(OC(C)=O)[C@@H]1[C@@H](N(Cc2ccc(-c3ccccc3)cc2)C(=O)c2ccc(-c3ccccc3)cc2)c2cc(OCCCO)ccc2N1C(=O)c1ccc(-c2ccccc2)cc1 (stereo partly specified)

>  <endpoint.value>
-0.726

$$$$
